Target: T1, PACAP-R3 (human, UniProt P41587 24-438)
T1 sequence (looked up): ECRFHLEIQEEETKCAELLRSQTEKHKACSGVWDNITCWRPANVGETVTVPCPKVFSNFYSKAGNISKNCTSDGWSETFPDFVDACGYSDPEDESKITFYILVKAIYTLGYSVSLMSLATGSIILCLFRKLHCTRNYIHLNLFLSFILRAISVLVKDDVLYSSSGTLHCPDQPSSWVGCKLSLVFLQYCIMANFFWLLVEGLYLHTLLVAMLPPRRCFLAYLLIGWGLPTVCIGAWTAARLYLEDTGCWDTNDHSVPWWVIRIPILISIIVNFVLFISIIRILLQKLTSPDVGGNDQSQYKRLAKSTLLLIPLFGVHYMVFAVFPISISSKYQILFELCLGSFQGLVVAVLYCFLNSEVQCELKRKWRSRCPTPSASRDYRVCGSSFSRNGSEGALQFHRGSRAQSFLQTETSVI
Assay: cell-based or functional assay
# R3 Selectivity listing for each entry below
Property label: R3 Selectivity

>>> assay_value("HSDAVFTDNYTRLRKQLAAKKYLNDILNGGT [R3P27]")
8
>>> assay_value("HSDAVFTDNYTRLRKQMAAKKYLNSIKNKR [R3P65]")
130
>>> assay_value("HSDAVFTDNYTRLRKQMAAKKYLQSIKNKRY [R3P69]")
190
